tested target: Melanocortin receptor 3 (Homo sapiens)
Sequence (P41968 whole entry): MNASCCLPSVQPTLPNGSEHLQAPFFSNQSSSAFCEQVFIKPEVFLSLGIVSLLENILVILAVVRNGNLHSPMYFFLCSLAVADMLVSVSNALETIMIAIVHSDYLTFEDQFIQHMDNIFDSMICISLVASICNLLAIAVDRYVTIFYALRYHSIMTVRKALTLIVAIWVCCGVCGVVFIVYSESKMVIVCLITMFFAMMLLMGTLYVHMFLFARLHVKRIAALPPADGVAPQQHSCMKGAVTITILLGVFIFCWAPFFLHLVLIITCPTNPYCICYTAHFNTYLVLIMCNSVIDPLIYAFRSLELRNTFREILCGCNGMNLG
test details: Agonist activity at human MC3R expressed in HEK2936E cells assessed as cAMP production in presence of IBMX by time resolved fluorescence assay
*1 amine or outer side, *2 acyl side, *3 side chain or, on linkers, in order; H or OH if unused. Where a SMILES comes first, the peptide text is derived from it. Bridges are numbered along the chain shown (N, C = ends). [ ]: non-standard residue; d: D form. oXylylene = c1ccc(C[*:2])c(C[*:1])c1; NMeR = CN[C@@H](CCCNC(=N)N)C(=O)O; Nle = CCCC[C@H](N)C(=O)O; X7 = C(C[*:1])C[*:2]
Entries annotated with measured EC50
Numeric only. Scale: nM

CC[C@H](C)[C@@H]1NC(=O)[C@@H]2CCCN2C(=O)[C@H](Cc2c[nH]c3ccccc23)NC(=O)[C@H](CCCNC(=N)N)N(C)C(=O)[C@H](Cc2ccccc2)NC(=O)[C@H](Cc2cnc[nH]2)NC(=O)[C@H]([C@@H](C)O)NC(=O)[C@@H](NC(C)=O)CSCc2ccccc2CSC[C@@H](C(N)=O)NC1=O (Ac-CTHF[NMeR]WPIC-NH2; linker 1-9 via oXylylene): 295

compound CCCC[C@@H]1NC(=O)[C@@H]2CSSC[C@H](NC(=O)[C@H](CCCNC(=N)N)NC(=O)[C@H](CC(=O)O)NC(=O)[C@H](Cc3c[nH]c4ccccc34)NC(=O)[C@H](CCCNC(=N)N)NC(=O)[C@H](Cc3ccccc3)NC(=O)[C@H](Cc3cnc[nH]3)NC(=O)CNC1=O)C(=O)N[C@@H](Cc1cnc[nH]1)C(=O)N[C@@H](Cc1ccccc1)C(=O)N[C@@H](CCCNC(=N)N)C(=O)N[C@@H](Cc1c[nH]c3ccccc13)C(=O)N[C@@H](CCCNC(=N)N)C(=O)N2 (cyclo(CHFRWRC[Nle]GHFRWDR); disulfide 1-7) , EC50 observed: 0.229

compound CCCC[C@@H]1NC(=O)[C@@H]2CSCCCSC[C@H](NC(=O)[C@H](CCCNC(=N)N)NC(=O)[C@H](CC(=O)O)NC(=O)[C@H](Cc3c[nH]c4ccccc34)NC(=O)[C@H](CCCNC(=N)N)NC(=O)[C@H](Cc3ccccc3)NC(=O)[C@H](Cc3cnc[nH]3)NC(=O)CNC1=O)C(=O)N[C@@H](Cc1cnc[nH]1)C(=O)N[C@@H](Cc1ccccc1)C(=O)N[C@@H](CCCNC(=N)N)C(=O)N[C@@H](Cc1c[nH]c3ccccc13)C(=O)N[C@@H](CCCNC(=N)N)C(=O)N2 (cyclo(CHFRWRC[Nle]GHFRWDR); linker 1-7 via X7) , EC50 observed: 0.302

* * *

Organism: Homo sapiens
test details: Selectivity ratio of Ki for human MC4R to Ki for human MC1R
*1 amine or outer side, *2 acyl side, *3 side chain or, on linkers, in order; H or OH if unused. Where a SMILES comes first, the peptide text is derived from it. Bridges are numbered along the chain shown (N, C = ends). [ ]: non-standard residue; d: D form. mXylylene = c1cc(C[*:1])cc(C[*:2])c1; pXylylene = c1cc(C[*:2])ccc1C[*:1]; NMeR = CN[C@@H](CCCNC(=N)N)C(=O)O; Nle = CCCC[C@H](N)C(=O)O
Entries annotated with measured Ratio Ki
Write the value as a bare number.

Please review the entries below; each comes with its answer.
CCCC[C@@H]1NC(=O)[C@@H]2CSSC[C@H](NC(=O)[C@H](CCCNC(=N)N)NC(=O)[C@H](CC(=O)O)NC(=O)[C@H](Cc3c[nH]c4ccccc34)NC(=O)[C@H](CCCNC(=N)N)NC(=O)[C@H](Cc3ccccc3)NC(=O)[C@H](Cc3cnc[nH]3)NC(=O)CNC1=O)C(=O)N[C@@H](Cc1cnc[nH]1)C(=O)N[C@@H](Cc1ccccc1)C(=O)N[C@@H](CCCNC(=N)N)C(=O)N[C@@H](Cc1c[nH]c3ccccc13)C(=O)N[C@@H](CCCNC(=N)N)C(=O)N2 (cyclo(CHFRWRC[Nle]GHFRWDR); disulfide 1-7): 25
CC[C@H](C)[C@@H]1NC(=O)[C@@H]2CCCN2C(=O)[C@H](Cc2c[nH]c3ccccc23)NC(=O)[C@H](CCCNC(=N)N)N(C)C(=O)[C@H](Cc2ccccc2)NC(=O)[C@H](Cc2cnc[nH]2)NC(=O)[C@H]([C@@H](C)O)NC(=O)[C@@H](NC(C)=O)CSCc2ccc(cc2)CSC[C@@H](C(N)=O)NC1=O (Ac-CTHF[NMeR]WPIC-NH2; linker 1-9 via pXylylene): 7

Kindly consider the entry below.
molecule CC[C@H](C)[C@@H]1NC(=O)[C@@H]2CCCN2C(=O)[C@H](Cc2c[nH]c3ccccc23)NC(=O)[C@H](CCCNC(=N)N)N(C)C(=O)[C@H](Cc2ccccc2)NC(=O)[C@H](Cc2cnc[nH]2)NC(=O)[C@H]([C@@H](C)O)NC(=O)[C@@H](NC(C)=O)CSCc2cccc(c2)CSC[C@@H](C(N)=O)NC1=O (Ac-CTHF[NMeR]WPIC-NH2; linker 1-9 via mXylylene) , Ratio Ki observed: 12
